tested on: NF-κB pathway (SEAP) in THP1-Dual cells; test: THP-1 Dual cell SEAP assay (L18-MDP stimulated); format: cell-based; conditions: Homo sapiens, THP1-Dual, read-out: NFkB THP1 IC50
pIC50: −log10 of the molar value.
Overview of recorded pIC50 for various compounds

> print(dat)
                         compound.structure                                tested.on  metric        result
1  COc1cc2ncc(-c3ccc(OC)c(NCCCO)n3)n2cc1S(=O)(=O)C(C)(C)C  NF-κB pathway (SEAP) in THP1-Dual cells   pIC50  6.00 to 6.60
2  COc1cc2ncc(-c3cccc(S(N)(=O)=O)c3)n2cc1S(=O)(=O)C(C)(C)C  NF-κB pathway (SEAP) in THP1-Dual cells   pIC50        < 6.00

Any idea what its pIC50 is? The compound is `COc1cc2ncc(-c3cc(Cl)c(N)nc3F)n2cc1S(=O)(=O)C(C)(C)C`
6.60 to 7.30

Query (compound): `COc1cc2ncc(-c3cnc(N)c(N)c3)n2cc1S(=O)(=O)C(C)(C)C` ; field requested: pIC50
< 6.00
